Measured IC50, listed per entry.
Test system: 922993-354-T-J3-PDC complex spheroid viability
Test: Anticancer human tumor 922993-354-T-J3-PDC patient-derived endometrial carcinoma cell line growth inhibition [POLQ]
Details: curve of first compound; second compound 3.16 µM

Example cases with answers are listed next.
INSERT INTO results (compound, system_under_test, endpoint_result) VALUES
  ('CC1COCCN1c1cc(-c2ccnn2C)c2ccnc(-c3ccn[nH]3)c2n1 (stereo not given) + Nc1ccc(C#CCN(C(=O)Cc2ncc(C(F)(F)F)cc2C(F)(F)F)c2ccc(F)cc2)nn1', '922993-354-T-J3-PDC complex spheroid viability', '593 nM'),
  ('COc1cc2cc(C(=O)CCC(=O)O)sc2cc1OC + Cc1cccc(N(C)C(=O)C2C(O)CCN2c2nc(C)cc(C(F)(F)F)c2C#N)c1', '922993-354-T-J3-PDC complex spheroid viability', '> 10000 nM'),
  ('Nc1ccn(C2OC(CO)C(O)C2(F)F)c(=O)n1 (stereo not given) + COC1C(OC(N)=O)C(O)C(Oc2ccc3c(O)c(NC(=O)c4ccc(O)c(CC=C(C)C)c4)c(=O)oc3c2C)OC1(C)C', '922993-354-T-J3-PDC complex spheroid viability', '< 31.6 nM');

Value lookup for IC50; key = C#Cc1c(F)ccc2cc(O)cc(-c3ncc4c(N5CC6CCC(C5)N6)nc(OCC56CCCN5CC(F)C6)nc4c3F)c12 (stereo not given) + COC1C(OC(N)=O)C(O)C(Oc2ccc3c(O)c(NC(=O)c4ccc(O)c(CC=C(C)C)c4)c(=O)oc3c2C)OC1(C)C > 10000 nM

Value lookup for IC50; key = O=c1[nH]cc(F)c(=O)[nH]1 + Nc1ccc(C#CCN(C(=O)Cc2ncc(C(F)(F)F)cc2C(F)(F)F)c2ccc(F)cc2)nn1 5480 nM

Value lookup for IC50; key = C=CCn1c(=O)c2cnc(Nc3ccc(N4CCN(C)CC4)cc3)nc2n1-c1cccc(C(C)(C)O)n1 + Cc1cccc(N(C)C(=O)C2C(O)CCN2c2nc(C)cc(C(F)(F)F)c2C#N)c1 > 1000 nM

Value lookup for IC50; key = CCc1cc2c(N3CCc4c(cc(Cn5ccnc5)cc4-c4cn(C)nc4C(F)(F)F)C3=O)ccnc2c(OC)n1 + Cc1cccc(N(C)C(=O)C2C(O)CCN2c2nc(C)cc(C(F)(F)F)c2C#N)c1 > 10000 nM

Value lookup for IC50; key = CC1COCCN1c1cc(-c2ccnn2C)c2ccnc(-c3ccn[nH]3)c2n1 (stereo not given) + COC1C(OC(N)=O)C(O)C(Oc2ccc3c(O)c(NC(=O)c4ccc(O)c(CC=C(C)C)c4)c(=O)oc3c2C)OC1(C)C 143 nM

Value lookup for IC50; key = CC(C)n1c(=O)n(C)c2cnc3cc(F)c(-c4ccc(OCCCN5CCCCC5)nc4)cc3c21 + COC1C(OC(N)=O)C(O)C(Oc2ccc3c(O)c(NC(=O)c4ccc(O)c(CC=C(C)C)c4)c(=O)oc3c2C)OC1(C)C > 10000 nM

Value lookup for IC50; key = O=C(Nc1ccc(O)c(NS(=O)(=O)c2ccc(F)cc2)c1)c1ccc(-c2ccccc2)cc1 + Nc1ccc(C#CCN(C(=O)Cc2ncc(C(F)(F)F)cc2C(F)(F)F)c2ccc(F)cc2)nn1 > 10000 nM

Value lookup for IC50; key = COc1cccc2c1C(=O)c1c(O)c3c(c(O)c1C2=O)CC(O)(C(=O)CO)CC3OC1CC(N)C(O)C(C)O1 (stereo not given) + COC1C(OC(N)=O)C(O)C(Oc2ccc3c(O)c(NC(=O)c4ccc(O)c(CC=C(C)C)c4)c(=O)oc3c2C)OC1(C)C 893 nM

Value lookup for IC50; key = CC(=O)O[C@H]1C(=O)[C@@]2(C)[C@H]([C@H](OC(=O)c3ccccc3)[C@]3(O)C[C@H](OC(=O)[C@H](O)[C@@H](NC(=O)c4ccccc4)c4ccccc4)C(C)=C1C3(C)C)[C@]1(OC(C)=O)CO[C@@H]1C[C@@H]2O + Cc1cccc(N(C)C(=O)C2C(O)CCN2c2nc(C)cc(C(F)(F)F)c2C#N)c1 > 3000 nM

Value lookup for IC50; key = CC1COCCN1c1cc(-c2ccnn2C)c2ccnc(-c3ccn[nH]3)c2n1 (stereo not given) + Cc1cccc(N(C)C(=O)C2C(O)CCN2c2nc(C)cc(C(F)(F)F)c2C#N)c1 174 nM

Value lookup for IC50; key = CNCc1ccc(-c2[nH]c3cc(F)cc4c3c2CCNC4=O)cc1 + COC1C(OC(N)=O)C(O)C(Oc2ccc3c(O)c(NC(=O)c4ccc(O)c(CC=C(C)C)c4)c(=O)oc3c2C)OC1(C)C > 10000 nM

Value lookup for IC50; key = CC(C)n1c(=O)n(C)c2cnc3cc(F)c(-c4ccc(OCCCN5CCCCC5)nc4)cc3c21 + Cc1cccc(N(C)C(=O)C2C(O)CCN2c2nc(C)cc(C(F)(F)F)c2C#N)c1 > 10000 nM

Value lookup for IC50; key = CC1COCCN1c1cc(C2(O)CC3CCC(C2)O3)c2cnn(-c3ccn[nH]3)c2n1 (stereo not given) + COC1C(OC(N)=O)C(O)C(Oc2ccc3c(O)c(NC(=O)c4ccc(O)c(CC=C(C)C)c4)c(=O)oc3c2C)OC1(C)C 361 nM

Value lookup for IC50; key = CCCS(=O)(=O)Nc1ccc(F)c(C(=O)c2c[nH]c3ncc(-c4ccc(Cl)cc4)cc23)c1F + Nc1ccc(C#CCN(C(=O)Cc2ncc(C(F)(F)F)cc2C(F)(F)F)c2ccc(F)cc2)nn1 > 10000 nM

Value lookup for IC50; key = Nc1ccn(C2OC(CO)C(O)C2(F)F)c(=O)n1 (stereo not given) + Cc1cccc(N(C)C(=O)C2C(O)CCN2c2nc(C)cc(C(F)(F)F)c2C#N)c1 < 31.6 nM

Value lookup for IC50; key = CCc1cc2c(N3CCc4c(cc(Cn5ccnc5)cc4-c4cn(C)nc4C(F)(F)F)C3=O)cc(C)nc2c(OC)n1 + Cc1cccc(N(C)C(=O)C2C(O)CCN2c2nc(C)cc(C(F)(F)F)c2C#N)c1 > 10000 nM

Value lookup for IC50; key = C#Cc1c(F)ccc2cc(O)cc(-c3ncc4c(N5CC6CCC(C5)N6)nc(OCC56CCCN5CC(F)C6)nc4c3F)c12 (stereo not given) + Cc1cccc(N(C)C(=O)C2C(O)CCN2c2nc(C)cc(C(F)(F)F)c2C#N)c1 > 10000 nM

----------
Test system: 922993-354-T-J3-PDC complex spheroid viability
Assay: Anticancer human tumor 922993-354-T-J3-PDC cell line growth inhibition [POLQ];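 note: spheroids exposed to the agents for one week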;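 for viability, T/C: 100% = DMSO vehicle control wells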
Conditions: second compound 0.316 µM; first compound 10 µM; stronger effect = lower value
reported_metric: viability, T/C (%)
Express your answer in %, writing the number without its unit.

Example cases with answers are listed next.
INSERT INTO results (compound, endpoint_result) VALUES
  ('O=C(Nc1ccc(O)c(NS(=O)(=O)c2ccc(F)cc2)c1)c1ccc(-c2ccccc2)cc1 + Nc1ccc(C#CCN(C(=O)Cc2ncc(C(F)(F)F)cc2C(F)(F)F)c2ccc(F)cc2)nn1', 105),
  ('CC1COCCN1c1cc(C2(O)CC3CCC(C2)O3)c2cnn(-c3ccn[nH]3)c2n1 (stereo not given) + Nc1ccc(C#CCN(C(=O)Cc2ncc(C(F)(F)F)cc2C(F)(F)F)c2ccc(F)cc2)nn1', 20.7),
  ('COc1ccc([C@@H](O)c2cc(-c3ncnc4cc(N5CCOCC5)ccc34)c(F)cc2Cl)nn1 + Cc1cccc(N(C)C(=O)C2C(O)CCN2c2nc(C)cc(C(F)(F)F)c2C#N)c1', 62.6),
  ('CC(C)n1c(=O)n(C)c2cnc3cc(F)c(-c4ccc(OCCCN5CCCCC5)nc4)cc3c21 + COC1C(OC(N)=O)C(O)C(Oc2ccc3c(O)c(NC(=O)c4ccc(O)c(CC=C(C)C)c4)c(=O)oc3c2C)OC1(C)C', 66.5);

Now look at this entry.
Value lookup for viability, T/C; key = CC1COCCN1c1cc(C2(O)CC3CCC(C2)O3)c2cnn(-c3ccn[nH]3)c2n1 (stereo not given) + COC1C(OC(N)=O)C(O)C(Oc2ccc3c(O)c(NC(=O)c4ccc(O)c(CC=C(C)C)c4)c(=O)oc3c2C)OC1(C)C 10.8

----------
Measured viability, T/C, listed per entry.
System: 922993-354-T-J3-PDC complex spheroid viability
Experiment: Anticancer human tumor 922993-354-T-J3-PDC cell line growth inhibition [POLQ];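 note: spheroids exposed to the agents for one week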;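 for viability, T/C: 100% = DMSO vehicle control wells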
Details: second compound 0.1 µM; first compound 0.001 µM; stronger effect = lower value
Procedure: Multicellular complex tumor spheroid response to Polymerase (POL) inhibitors (novobiocin, ART-558, RP6685) in combination with a variety of drugs and investigational agents in selected tumor cell lines The POL inhibitors (novobiocin, ART-558, and RP6685) were evaluated both individually and in combination with standard of care and investigational anticancer small molecules within a complex spheroid model of solid tumors. . […]
Express your answer in %, writing the number without its unit.

INSERT INTO results (compound, endpoint_result) VALUES
  ('Cn1ncnc1[C@H]1c2n[nH]c(=O)c3cc(F)cc(c23)N[C@@H]1c1ccc(F)cc1 + Cc1cccc(N(C)C(=O)C2C(O)CCN2c2nc(C)cc(C(F)(F)F)c2C#N)c1', 105);

Value lookup for viability, T/C; key = CC[C@@]1(O)C(=O)OCc2c1cc1n(c2=O)Cc2cc3c(CN(C)C)c(O)ccc3nc2-1 + COC1C(OC(N)=O)C(O)C(Oc2ccc3c(O)c(NC(=O)c4ccc(O)c(CC=C(C)C)c4)c(=O)oc3c2C)OC1(C)C 101

Value lookup for viability, T/C; key = Cn1ncnc1[C@H]1c2n[nH]c(=O)c3cc(F)cc(c23)N[C@@H]1c1ccc(F)cc1 + Nc1ccc(C#CCN(C(=O)Cc2ncc(C(F)(F)F)cc2C(F)(F)F)c2ccc(F)cc2)nn1 102

Value lookup for viability, T/C; key = CC[C@@]1(O)C(=O)OCc2c1cc1n(c2=O)Cc2cc3c(CN(C)C)c(O)ccc3nc2-1 + Nc1ccc(C#CCN(C(=O)Cc2ncc(C(F)(F)F)cc2C(F)(F)F)c2ccc(F)cc2)nn1 105

Value lookup for viability, T/C; key = Cn1ncnc1[C@H]1c2n[nH]c(=O)c3cc(F)cc(c23)N[C@@H]1c1ccc(F)cc1 + COC1C(OC(N)=O)C(O)C(Oc2ccc3c(O)c(NC(=O)c4ccc(O)c(CC=C(C)C)c4)c(=O)oc3c2C)OC1(C)C 102

Value lookup for viability, T/C; key = CC[C@@]1(O)C(=O)OCc2c1cc1n(c2=O)Cc2cc3c(CN(C)C)c(O)ccc3nc2-1 + Cc1cccc(N(C)C(=O)C2C(O)CCN2c2nc(C)cc(C(F)(F)F)c2C#N)c1 101

This collection of values is drawn from PubChem BioAssay AID1963830.
